system: A498 renal; test: NCI-60 one-dose screen, 48 h (100 = growth as untreated, 0 = no growth, -100 = all killed); conditions: 10 µM unless noted
Compounds without any hit were thinned out: in the full panel of roughly 83,000, 20% have a hit.
measured.endpoint: growth (%)
# value in %; strip the unit string

Recorded growth, per entry:
O=c1[nH]c(Cl)nc2c1cnn2-c1ccccc1 ... 84.1
O=C(Nc1ccc(OCc2nnc(-c3ccccc3)o2)c(F)c1)Nc1ccc(Cl)c(C(F)(F)F)c1 ... 18
Cc1c(N(C)CS(=O)(=O)O)c(=O)n(-c2ccccc2)n1C ... 109
CC1=CSC2=NCCN12 ... 118

Entry under test: O=C1CC(=O)N(c2ccccc2)O1 . Its growth was 94.6

Entry under test: O=C1NC(=O)/C(=C\c2ccccc2)C2=C1CCCC2 . Its growth was 101

Entry under test: O=C1C(Cl)=C(N=Nc2c(Cl)c(O)c3ccccc3c2O)C(=O)c2ccccc21 . Its growth was 63.6

Entry under test: O=C(/C=C/c1ccccc1Cl)c1ccc(O)cc1 . Its growth was 91.9

Entry under test: O=C(O)c1ccc(NC(=O)c2ccc(Nc3ccnc(C(F)(F)F)c3)cc2)cc1 . Its growth was 105

Entry under test: Cn1cc(-c2csc(-c3cn(C)c4ncccc34)n2)c2cccnc21 . Its growth was 76.1

Entry under test: C[N+]1(CCC[N+]2(C)C[C@@H]3[C@H](C2)[C@@H]2C=C[C@H]3C2)CCOCC1 (some centres not stated) . Its growth was 103

Entry under test: COc1ccc(/C=C(\C#N)c2ccccc2)cc1 . Its growth was 79.4

Entry under test: COc1ccc(-c2c3c(nn2-c2ccc(N)cc2)CCc2cnoc2-3)cc1OC . Its growth was 85.3

Entry under test: O=C(Nc1ccc(Cl)cc1)Nc1ccc(Oc2nncc3ccccc23)cc1 . Its growth was 24.5

Entry under test: Nc1ccc(C2=Nc3cccc4cccc(c34)S2)cc1 . Its growth was 55.9

Entry under test: COc1ccc2c(c1)C(=O)/C(=C/c1ccc([N+](=O)[O-])s1)O2 . Its growth was 99.6

Entry under test: CNc1ccc(CSc2ccc(Cl)cc2)cc1 . Its growth was 87

Entry under test: COC(=O)CCC1=C(C)C(C)=N/C1=C\c1[nH]c(-c2ccc[nH]2)cc1OC . Its growth was 4.29

Entry under test: Oc1[nH]c2ccccc2c1/C=c1/ccc2c(c1)N=C(c1cc(F)cc(F)c1)N=2 . Its growth was 60.5

Entry under test: CCc1[nH]nc(-c2ccc(OC)cc2)c1-c1ccccc1OCCN(CC)CC . Its growth was 80.7

Entry under test: COC(=O)[C@]12CC[C@@H](C)[C@H](C)[C@@H]1C1=CC[C@@H]3[C@@]4(C)C=C(O)C(=O)[C@@]5(C)COC(=C54)C[C@@]3(C)[C@]1(C)CC2 . Its growth was -78

Entry under test: Cc1[nH]n(C(N)=S)c(=O)c1N=Nc1ccc(F)c(Cl)c1 . Its growth was 128

* * *

tested on: DU-145 prostate; assay: NCI-60 one-dose screen, 48 h (100 = growth as untreated, 0 = no growth, -100 = all killed); conditions: 10 µM unless noted
The panel holds about 83,000 compounds, 20% with a hit somewhere; the sample as a whole holds those more often. Active and inactive are the calls of the source. The calls were made as follows: active = growth percent below 10; inactive = the rest.
Reported growth values follow for various molecules

S=C1SCN(Cc2ccccc2)CN1Cc1ccco1 ... 68.3% (inactive)
C[n+]1ccc(C#N)c2ccccc21 ... 91.8% (inactive)
O=C(O)c1ccc(NC(=O)c2cccc(Nc3ccnc(C(F)(F)F)c3)c2)cc1 ... 116% (inactive)
CSc1ccc2c(c1)N(CCC1CCCCN1C)c1ccccc1S2 (stereo unspecified) ... 68.7% (inactive)
CCc1ccc(CCN2C(=O)c3ccccc3C2=O)nc1 ... 118% (inactive)

Entry under test: Cc1ccc(NC(=O)COC(=O)c2ccc(S(=O)(=O)N3CCCCCC3)cc2)cc1 . Its growth was 108% (inactive)

* * *

system: DU-145 prostate; assay: NCI-60 one-dose screen, 48 h; conditions: 10 µM unless noted
This is part of a sample that, as a whole, favours compounds with a hit. Of some 83,000 tested, about 20% had one in any assay. The source made the active and inactive calls. The calls were made as follows: active = growth percent below 10; inactive = the rest.
Mark one answer only. Choices: YES = active, NO = inactive

Example cases with answers are listed next.
COC(=O)CCC1=C(CC(=O)OC)C(C)=N/C1=C\c1[nH]c(-c2ccc[nH]2)cc1OC ... NO
CC/C(=C\c1ccc(N(C)C)cc1)c1ccncc1 ... NO
O=C(Nc1nc(-c2ccc(Cl)cc2)cs1)c1cc(O)c(O)c(O)c1 ... NO
Cc1ccc2c(c1)C(=O)/C(=C/c1ncc([N+](=O)[O-])n1C)O2 ... YES
CN1CCN(Cc2ccc(NC(=O)c3[nH]ncc3Nc3ccnc4ccnn34)cc2)CC1 ... NO

## Task Outcome logged for O=C1C[C@@H]2/C(=C(O)\C=C\c3ccccc3)C(=O)C=C[C@@H]2O1 in this assay:
## Result YES

## Task Outcome logged for Cc1cc2c(cc1C)Nc1sc(NC(=O)CN3CCN(C)CC3)nc1C(=O)N2 in this assay:
## Result NO

## Task Outcome logged for CC(=O)Oc1c(C)c(OC(C)=O)c2c(c1C(C)=O)OC1CC(=O)C(C(C)=O)=C(O)C21C (centres undefined) in this assay:
## Result NO

## Task Outcome logged for CC1(C)OC(=O)C(=Cc2ccccc2Br)C(=O)O1 in this assay:
## Result NO

* * *

Reported growth values follow for various molecules
test system: SNB-19 CNS; assay: NCI-60 one-dose screen, 48 h (100 = growth as untreated, 0 = no growth, -100 = all killed); conditions: 10 µM unless noted
About 83,000 compounds went through this panel and 20% of them were active in at least one assay; those are over-represented in the sample as a whole.
# value in %; strip the unit string

O=C1c2ccccc2-c2c1nc1ccccc1[n+]2[O-] ... 103
O=C(Cn1ccnc1)NC(c1ccccc1)c1ccccc1 ... 95.1

Entry under test: COc1cc(OC)c2cc(C(=O)O)c(=O)oc2c1 . Its growth was 98

* * *

Reported growth values follow for various molecules
system: NCI-H460 lung; test: NCI-60 one-dose screen, 48 h (100 = growth as untreated, 0 = no growth, -100 = all killed); settings: 10 µM unless noted
The panel holds about 83,000 compounds, 20% with a hit somewhere; the sample as a whole holds those more often.
# value in %; strip the unit string

Recorded growth, per entry:
CCCCN(CCCC)CCCOC(=O)c1ccc(N)cc1 ... 78.4
COc1cc(/C=C/C(=O)c2c(-c3ccc(F)cc3)nc3sc(C)nn23)cc(OC)c1OC ... 11.8
N#CCCN(CCO)c1ccccc1 ... 105
CCC1=C(c2ccc(OC)cc2)C(C)Oc2cc(OC(C)=O)ccc21 (configuration not stated) ... 93

Entry under test: O=C1C[C@@H]2/C(=C(O)\C=C\c3ccccc3)C(=O)C=C[C@@H]2O1 . Its growth was 12.1

Entry under test: COC1=CC(c2ccc[nH]2)=N/C1=C\c1[nH]c(C)c(C(=O)CCC(=O)Oc2ccc3c(c2)CCC2C3CC[C@]3(C)C(=O)CC[C@@H]23)c1C (some centres not stated) . Its growth was 48.3

Entry under test: CCCc1cccc(CCC)c1O . Its growth was 106

Entry under test: CC(NC(=O)C(C)Oc1ccc(Cl)cc1Cl)C(=O)O (configuration not stated) . Its growth was 101

Entry under test: O=c1[nH]c(Cl)nc2c1cnn2-c1ccccc1 . Its growth was 95.3

Entry under test: COc1ccc(/C(=C2\O[C@@H]([C@H](O)CO)[C@H]3OC(C)(C)O[C@@H]23)c2cc(OC)c(OC)c(OC)c2)cc1O . Its growth was 107

Entry under test: O=C1Nc2ccccc2C12Nc1cc(Cl)ccc1S2 (configuration not stated) . Its growth was 87.5

Entry under test: N=c1ccn2c(n1)O[C@@H]1[C@@H](O)[C@H](CO)O[C@@H]12 . Its growth was 12.3

Entry under test: C[N+]1(CCC[N+]2(C)C[C@@H]3[C@H](C2)[C@@H]2C=C[C@H]3C2)CCOCC1 (some centres not stated) . Its growth was 116

Entry under test: O=C(OCCBr)c1ccc(Cl)c([N+](=O)[O-])c1 . Its growth was 103

Entry under test: O=C(O)c1ccccc1C(=O)OC1CCCC2CCCC21 (configuration not stated) . Its growth was 112

Entry under test: NC(=O)N/N=C/c1ccc(Br)o1 . Its growth was 110

Entry under test: O=C(C=C=Nc1ccccc1)C(=O)N=C=Cc1ccccc1 . Its growth was 92.2

Entry under test: CCN(CC)CCCNCCCNc1cc(OC)cc2cccnc12 . Its growth was 103

Entry under test: NC(=O)c1ccccc1NC(=O)c1ccccc1Cl . Its growth was 114

Entry under test: COc1cc(/C=C2\CCC/C(=C\c3ccc(OCC4CO4)c(OC)c3)C2=O)ccc1OCC1CO1 (configuration not stated) . Its growth was 8.96

Entry under test: O=C(CCc1nnc(Cn2cncn2)o1)c1nc2ccccc2[nH]1 . Its growth was 108

Entry under test: Cc1cccc(Cl)c1NC(=O)c1ccc2nc(NC(=O)NC3CC(C)(C)NC(C)(C)C3)sc2c1 . Its growth was 101
